Overview of recorded pIC50 for various molecules
test-target: Amine oxidase [flavin-containing] B (Homo sapiens, UniProt P27338)
experiment: biochemical
Description: Inhibition of human recombinant microsomal MAO-B expressed in baculovirus infected BTI-TN-5B1-4 cells using p-tyramine as substrate assessed as reduction in H2O2 production preincubated for 15 mins followed by substrate addition measured for 15 mins Amplex red dye based fluorimetric method
# pIC50: negative log10 of molar concentration; output just the value

The following molecules have reported results that may help.
- structure: "O=C1/C(=C/c2c[nH]cn2)COc2ccccc21"
  pIC50: 4.69
- structure: "CN(C)c1ccc(/C=C2\\COc3cc(Cl)cc(Cl)c3C2=O)cn1"
  pIC50: 4.98
- structure: "O=C1/C(=C/c2cccnc2)COc2ccccc21"
  pIC50: 5.08
- structure: "COc1ccc2c(c1)OC/C(=C\\c1c[nH]cn1)C2=O"
  pIC50: 4.97
- structure: "O=C1/C(=C/c2ccccn2)COc2ccccc21"
  pIC50: 5.53
- structure: "CN(C)c1ncc(/C=C2\\COc3ccccc3C2=O)cn1"
  pIC50: 6.62

Note to self: pIC50 recorded for "COc1ccc2c(c1)OC/C(=C\c1cnc(N(C)C)nc1)C2=O" was 4.98

Note to self: pIC50 recorded for "CN(C)c1ncc(/C=C2\COc3cc(Cl)cc(Cl)c3C2=O)cn1" was 7.98

Note to self: pIC50 recorded for "Nc1ccc(/C=C2\COc3ccccc3C2=O)cn1" was 5.62

Note to self: pIC50 recorded for "O=C1/C(=C/c2c[nH]c3ccccc23)COc2ccccc21" was 6.74

Note to self: pIC50 recorded for "O=C1/C(=C/c2ccsc2)COc2ccccc21" was 5.76

====

experiment: Selectivity index, ratio of IC50 for human recombinant microsomal MAO-A expressed in baculovirus infected BTI-TN-5B1-4 cells to IC50 for human recombinant microsomal MAO-B expressed in baculovirus infected BTI-TN-5B1-4 cells
experimental-endpoint: Ratio IC50
// keep it numeric: no unit symbol after the value

Note to self: Ratio IC50 recorded for "O=C1/C(=C/c2ccsc2)COc2ccccc21" was 58

Note to self: Ratio IC50 recorded for "O=C1/C(=C/c2cccs2)COc2ccccc21" was 88

Note to self: Ratio IC50 recorded for "O=C1/C(=C/c2ccco2)COc2ccccc21" was 27

Note to self: Ratio IC50 recorded for "O=C1/C(=C/c2c[nH]cn2)COc2ccccc21" was 5

Note to self: Ratio IC50 recorded for "COc1ccc2c(c1)OC/C(=C\c1c[nH]cn1)C2=O" was 9.4

====

experiment: Selectivity index, ratio of IC50 for human recombinant microsomal MAO-A expressed in baculovirus infected BTI-TN-5B1-4 cells to IC50 for human recombinant microsomal MAO-B expressed in baculovirus infected BTI-TN-5B1-4 cells
Overview of recorded Ratio IC50 for various compounds
// keep it numeric: no unit symbol after the value

Note to self: Ratio IC50 recorded for "O=C1/C(=C/c2c[nH]cn2)COc2cc(Cl)cc(Cl)c21" was 9.8

Note to self: Ratio IC50 recorded for "CN(C)c1ccc(/C=C2\COc3cc(Cl)cc(Cl)c3C2=O)cn1" was 9.5

Note to self: Ratio IC50 recorded for "O=C1/C(=C/c2ccc[nH]2)COc2ccccc21" was 7.3

Note to self: Ratio IC50 recorded for "O=C1/C(=C/c2c[nH]c3ccccc23)COc2ccccc21" was 551

====

test-target: Amine oxidase [flavin-containing] B (Homo sapiens)
Sequence (P27338 whole entry): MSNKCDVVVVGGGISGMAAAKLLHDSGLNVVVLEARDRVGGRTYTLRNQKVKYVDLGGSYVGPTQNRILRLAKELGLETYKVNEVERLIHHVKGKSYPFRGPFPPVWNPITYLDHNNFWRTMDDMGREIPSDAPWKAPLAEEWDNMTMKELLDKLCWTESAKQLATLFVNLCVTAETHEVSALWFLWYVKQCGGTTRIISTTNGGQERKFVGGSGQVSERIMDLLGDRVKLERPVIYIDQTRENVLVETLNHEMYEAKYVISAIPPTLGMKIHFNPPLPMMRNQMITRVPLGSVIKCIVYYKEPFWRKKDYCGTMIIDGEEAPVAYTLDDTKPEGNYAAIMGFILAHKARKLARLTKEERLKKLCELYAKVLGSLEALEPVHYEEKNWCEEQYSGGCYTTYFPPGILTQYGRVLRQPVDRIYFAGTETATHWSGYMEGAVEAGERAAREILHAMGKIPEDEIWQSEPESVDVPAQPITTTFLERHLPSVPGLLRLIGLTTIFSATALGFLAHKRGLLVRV
experiment: biochemical
experimental-endpoint: pIC50
# pIC50: negative log10 of molar concentration; output just the value

- structure: "O=C1/C(=C/c2cccs2)COc2ccccc21"
  pIC50: 5.95

Note to self: pIC50 recorded for "O=C1/C(=C/c2c[nH]cn2)COc2cc(Cl)cc(Cl)c21" was 4.99

Note to self: pIC50 recorded for "CN(C)c1ccc(/C=C2\COc3ccccc3C2=O)cn1" was 6.67

Note to self: pIC50 recorded for "O=C1/C(=C/c2ccncc2)COc2ccccc21" was 4.91

Note to self: pIC50 recorded for "O=C1/C(=C/c2ccco2)COc2ccccc21" was 5.42

Note to self: pIC50 recorded for "Nc1ncc(/C=C2\COc3ccccc3C2=O)cn1" was 4.74

Note to self: pIC50 recorded for "O=C1/C(=C/c2ccc[nH]2)COc2ccccc21" was 4.86
